# protein stability index annotations
B1: CIB1 (parent)
chain: DLSRLVNCLTGEGEDTRLSASEMK

variants of: B1; assay: protein stability index of a GFP-peptide fusion (GPS, HEK-293T) (PSI 1-6); higher = more stable; conditions: c terminus: a fixed tail appended;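 also: lentivirally expressed fusions sorted by FACS into six bins by GFP to DsRed ratio, PSI derived from sequencing read proportions per bin multiplied by bin number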
// response body must contain only the number

RESIDUE_CHANGE | protein stability index
T10G | 2.92
S19Y | 2.29
L2M | 5.13

Noted for T10Q : its protein stability index reads 3.61

Noted for L9S : its protein stability index reads 2.62

Noted for V6E : its protein stability index reads 2.91

Noted for E12F : its protein stability index reads 1.63

Noted for K24A : its protein stability index reads 3.25

Noted for E22L : its protein stability index reads 2.29

src = the supplement of paper PMC10567573
